As shown below, each of these compounds has a reported EC50 value.
System: EPO
PROCEDURE DETAILS: Measurement of the secretion of EPO by Hep3B hepatocytes (ELISA)
Type: cell-based
CONDITION NOTES: Homo sapiens, supernatant of Hep3B cells, 18 hours under normoxia, concentration that produces 50% of the maximum response of this same compound
From the text: The test is an ELISA test for measuring VEGF and EPO in the supernatant of Hep3B cells treated under hypoxia or with deferoxamine as controls or with the potential HIF activators. The test was adapted to a 96-well plate, allowing greater compound screening capacity. […]
MEASUREMENT LABEL: EC50 (nM)

CN(C(C)(C)C)S(=O)(=O)c1ccc(-n2nc3c(c2O)CSC3)nc1 [Compound 36]; 1600
CCN(c1ccccc1)S(=O)(=O)c1ccc(-n2[nH]c3c(c2=O)CN(C(C)=O)CC3)nc1 [Compound 29]; 2500
O=c1c2c([nH]n1-c1ccc(S(=O)(=O)N3CCCCCC3)cn1)CSC2 [Compound 26]; 1000

====

Tested on: EPO
PROCEDURE DETAILS: Measurement of the secretion of EPO by Hep3B hepatocytes (ELISA)
Assay type: cell-based
CONDITION NOTES: Homo sapiens, supernatant of Hep3B cells, 18 hours under normoxia, concentration that produces 50% of the maximum response of this same compound
pEC50: −log10 of the molar value.
Entries and their measured pEC50 follow.
MEASUREMENT LABEL: pEC50

O=c1c2c([nH]n1-c1ccc(S(=O)(=O)NC3CCCC3)cn1)CSC2; 6.00
O=c1c2c([nH]n1-c1ccc(S(=O)(=O)NCc3ccco3)cn1)CSC2; 5.62
CCN(c1ccccc1)S(=O)(=O)c1ccc(-n2[nH]c3c(c2=O)SCCC3)nc1; 6.30
CCN(c1ccccc1)S(=O)(=O)c1ccc(-n2[nH]c3c(c2=O)COCC3)nc1; 5.62
O=c1c2c([nH]n1-c1ccc(S(=O)(=O)NC3CC3)cn1)CSC2; 5.46
CC(C)(C)OC(=O)c1ccc(-n2[nH]c3c(c2=O)CSC3)nc1; 5.82
CC(C)(C)NS(=O)(=O)c1ccc(-n2[nH]c3c(c2=O)CSC3)nc1; 6.30
O=c1c2c([nH]n1-c1ccccn1)CSC2; 5.54
CCN(c1ccccc1)S(=O)(=O)c1ccc(-n2[nH]c3c(c2=O)CSCC3)nc1; 6.05
CCN(c1ccccc1)S(=O)(=O)c1ccc(-n2[nH]c3c(c2=O)CN(C(=O)OC(C)(C)C)CC3)nc1; 6.00
CC(C)NS(=O)(=O)c1ccc(-n2[nH]c3c(c2=O)CSC3)nc1; 5.54
CCc1ccnc(-n2[nH]c3c(c2=O)CSC3)c1; 5.66
CCN(c1ccccc1)S(=O)(=O)c1ccc(-n2nc3c(c2O)N(Cc2ccccc2)C(=O)CC3)nc1; 5.77
CCN(c1ccccc1)S(=O)(=O)c1ccc(-n2[nH]c3c(c2=O)CSC3)nc1; 6.15
CCN(C(C)(C)C)S(=O)(=O)c1ccc(-n2nc3c(c2O)CSC3)nc1; 5.59
CN(c1ccccn1)S(=O)(=O)c1ccc(-n2[nH]c3c(c2=O)CSC3)nc1; 5.85
COc1ccnc(-n2[nH]c3c(c2=O)CSC3)c1; 5.59
O=c1c2c([nH]n1-c1ccc(S(=O)(=O)N3CCCC3)cn1)CSC2; 5.55

Sourced from patent US8697731B2
